System: E2F
measurement.parameters: printed sequence appears to lack U residues (compare SEQ 222)
metric.name: Kd (nM)

                             residue_string  metric_name  measure_unit  value
0  GGGAGAGAGGAAGAGGGAGGGGCACCGCCAGCGGCGACGGACCCGCCCACAGGCCCCAAACCCAGAGGCGAAGACGGACCCCCC [E2F 10-2]           Kd            nM      3

###

assayed.system: coagulation factor Xa (FXa) (UniProt P00742+P00742)
Sequence (P00742 41-179, chain 1 of 2): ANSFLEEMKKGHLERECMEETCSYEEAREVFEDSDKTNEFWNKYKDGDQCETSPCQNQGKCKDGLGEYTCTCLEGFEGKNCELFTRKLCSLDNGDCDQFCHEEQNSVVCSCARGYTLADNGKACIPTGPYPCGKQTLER
Sequence (P00742 235-488, chain 2 of 2): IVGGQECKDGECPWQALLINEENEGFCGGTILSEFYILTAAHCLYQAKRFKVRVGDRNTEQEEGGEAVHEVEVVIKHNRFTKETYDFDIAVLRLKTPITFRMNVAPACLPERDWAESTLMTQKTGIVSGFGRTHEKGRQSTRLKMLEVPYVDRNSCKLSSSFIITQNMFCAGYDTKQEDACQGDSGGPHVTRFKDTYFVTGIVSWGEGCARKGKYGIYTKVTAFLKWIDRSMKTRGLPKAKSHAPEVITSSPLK
metric.name: Kd (nM)

In [3]: df
Out[3]:
                             residue_string  value
0  GGGAGAGAGGAAGAGGGAUGGGCCAUUGCUNCCCUGAACANGGGCNCCACNCCGCCUNCACAGUCAUAACCCAGAGGUCGAU [E10-1]   51.7
1  GGGAGAGAGGAAGAGGGAUGGGNGAUUAGCCCNAGCGAGAUANUACUUGGCCCCGCUACNUCCAUAACCCAGAGGUCGAU [D7-8]   14.5
2  GGGAGAGAGGAAGAGGGAUGGGAGUCCGACUGGAGAACANGUACUCUAUAAGCACUUNCAUNCANCAUAACCCAGAGGUCGAU [E10-7]   69.5
3  GGGAGAGAGGAAGAGGGAUGGGAAAAUACGCCANNCGAGAUUAUACUUGGCCCCGCUAAUACCAUAACCCAGAGGUCGAU [D6-6]    3.1
